B1: Unconventional myosin-Ie, residues 1051 to 1108; numbered along this chain, Q12965 (parent)
chain: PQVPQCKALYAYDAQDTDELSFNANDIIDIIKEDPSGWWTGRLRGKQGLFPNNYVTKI

Variants of: B1
protocol_text: abundance fitness (aPCA) (normalised: wild type 0, dead -1); higher = more abundant; growth selection in yeast, the domain comes from the species named
protocol_conditions: Homo sapiens
Label true (1) when abundance fitness >= -0.2; otherwise false (0).

-- ask hey, is abundance fitness for this one >= -0.2? Q47P
-- reply false (0)

-- ask Cool, now A8N
-- reply false (0)

-- ask What do you get for A14T ?
-- reply false (0)

-- ask Can you handle D34F next?
-- reply false (0)

-- ask How about N52S ?
-- reply true (1)

-- ask Next: N53C
-- reply true (1)

-- ask Proceed to G37L
-- reply false (0)

-- ask Try Y12Q next.
-- reply false (0)

-- ask Now the same for E19Q
-- reply true (1)

-- ask Lookup L43F
-- reply true (1)

-- ask Follow-up entry: N53M
-- reply true (1)

-- ask Request: Y10M
-- reply true (1)

-- ask Follow-up entry: A11D
-- reply true (1)

-- ask For Q15G then?
-- reply true (1)

-- ask Moving on to R44F
-- reply true (1)

-- ask Quick one: P51Q
-- reply false (0)

-- ask How about A11H ?
-- reply true (1)

-- ask Cool, now A8R
-- reply false (0)

-- ask Then this variant: T40V
-- reply true (1)

-- ask For I30N then?
-- reply false (0)
